System: Pyricularia oryzae
Measurement Notes: Antifungal activity against Magnaporthe oryzae infected on compound treated rice seedlings at 500 ppm incubated for 24 hr in moist chamber followed by incubation for 5 days in greenhouse conditions
Assay type: functional
Property Name: Activity (%)
// note: answer is a bare numeric in %

## Input Recorded Activity of `CCCCCC/C(=N/S(=O)(=O)c1ccc(C)cc1)N1CCCCC1` , please.
## Output 50

## Input Recorded Activity of `CCCCCC/C(=N/S(=O)(=O)c1ccc(C)cc1)N1CCN(C)CC1` , please.
## Output 30

## Input Recorded Activity of `CCCC/C(=N/S(=O)(=O)c1ccc(C)cc1)N(CC)CC` , please.
## Output 70

## Input Recorded Activity of `CCN(CC)/C(=N\S(=O)(=O)c1ccc(C)cc1)C(C)C` , please.
## Output 0

## Input Recorded Activity of `COC(=O)c1ccccc1/C(=C/S(=O)(=O)c1ccc(C)cc1)N(C)C` , please.
## Output 0

## Input Recorded Activity of `Cc1ccc(S(=O)(=O)/N=C(/c2ccc(Cl)cc2)N(C)C)cc1` , please.
## Output 0

## Input Recorded Activity of `Cc1ccc(S(=O)(=O)/N=C(/c2ccc([N+](=O)[O-])cc2)N(C)C)cc1` , please.
## Output 0

## Input Recorded Activity of `CCCCCCCC/C(=N/S(=O)(=O)c1ccc(C)cc1)N(CC)CC` , please.
## Output 70
